Could you please report measured inhibition at 1 µM for the items listed next?
# TARGET_DESC: human FLT-3 (Arg571-Ser993) (Homo sapiens, UniProt P36888)
# Construct: human FLT-3 (Arg571-Ser993); GST (N); purchased Cell Signaling Technology; host or cells: baculovirus expression system
# Sequence (P36888 571-993): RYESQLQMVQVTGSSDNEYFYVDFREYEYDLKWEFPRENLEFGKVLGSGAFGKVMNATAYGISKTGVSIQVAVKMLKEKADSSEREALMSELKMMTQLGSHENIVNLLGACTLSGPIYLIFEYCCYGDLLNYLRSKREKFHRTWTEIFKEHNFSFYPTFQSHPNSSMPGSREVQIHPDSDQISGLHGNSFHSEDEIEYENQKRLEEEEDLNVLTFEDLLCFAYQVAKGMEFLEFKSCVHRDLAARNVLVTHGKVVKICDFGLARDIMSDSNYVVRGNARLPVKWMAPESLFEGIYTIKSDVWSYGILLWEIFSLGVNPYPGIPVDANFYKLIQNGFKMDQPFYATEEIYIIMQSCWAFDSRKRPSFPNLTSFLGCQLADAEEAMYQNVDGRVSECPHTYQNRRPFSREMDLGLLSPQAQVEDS
# EXPERIMENT_NOTES: FLT-3 kinase assay (HTScan kit, DELFIA)
# Format: biochemical
# EXPERIMENTAL_CONDITIONS: compound at 1 μM; read-out: FLT-3 1 μM, % of inhibition relative to control

* Cc1ccc2c(c1)/C(=C/c1ccc3cccccc1-3)C(=O)N2 | 61.6%

Quick request: inhibition at 1 µM for each listed item, please.
1. CN(C)Cc1cc(/C=C2/C(=O)Nc3ccccc32)c2cccccc1-2
2. CCOC(=O)N1CCC(Nc2ccc3c(c2)/C(=C\c2cc(C)c4c(OCCCN(C)C)ccccc2-4)C(=O)N3)CC1
3. COc1ccc2c(c1)/C(=C/c1ccc3cccccc1-3)C(=O)N2
4. O=C1Nc2ccc(Cl)cc2/C1=C/c1ccc2cccccc1-2
5. O=C1Nc2ccc(F)cc2/C1=C/c1ccc2cccccc1-2
6. O=C1Nc2ccccc2/C1=C\c1c2cccccc-2[nH]c1=O
7. O=C1Nc2ccc(Br)cc2/C1=C\c1ccc2cccccc1-2

A.
1. 43.9%
2. 2%
3. 8.2%
4. 43.4%
5. 34.7%
6. 30.9%
7. 40.1%

Quick request: inhibition at 1 µM for each listed item, please.
1. O=C1/C(=C\c2ccc3cccccc2-3)c2ccccc2N1C(c1ccccc1)c1ccccc1
2. CCc1cc(C=C2C(=O)Nc3ccc(S(=O)(=O)NCCCN4CCN(C)CC4)cc32)c2cccccc1-2

A.
1: 14.7%; 2: 17.7%

Quick request: inhibition at 1 µM for each listed item, please.
1. O=C1Nc2ccccc2/C1=C\c1cc2cccccc-2c1
2. Cc1c2cccccc-2c(C)c1/C=C1/C(=O)Nc2ccc(F)cc21

A.
1. 89.5%
2. 19.6%

---

# TARGET_DESC: human c-KIT (Thr544-Val976) (Homo sapiens, UniProt P10721)
# Construct: human c-KIT (Thr544-Val976); GST (N); purchased Cell Signaling Technology; host or cells: baculovirus expression system
# Sequence (P10721 544-976): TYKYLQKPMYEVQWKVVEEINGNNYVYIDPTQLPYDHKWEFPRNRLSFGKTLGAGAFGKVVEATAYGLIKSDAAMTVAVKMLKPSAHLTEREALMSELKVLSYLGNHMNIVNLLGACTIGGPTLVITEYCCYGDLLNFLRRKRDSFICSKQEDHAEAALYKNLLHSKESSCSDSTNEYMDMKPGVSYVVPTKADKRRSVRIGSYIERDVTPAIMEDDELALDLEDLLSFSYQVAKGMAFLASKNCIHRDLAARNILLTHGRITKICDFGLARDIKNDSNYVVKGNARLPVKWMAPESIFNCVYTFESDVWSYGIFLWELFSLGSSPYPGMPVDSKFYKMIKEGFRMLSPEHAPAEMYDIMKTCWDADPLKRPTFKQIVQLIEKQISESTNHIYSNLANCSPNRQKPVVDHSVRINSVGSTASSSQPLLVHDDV
# EXPERIMENT_NOTES: c-KIT kinase assay (HTScan kit, DELFIA)
# Format: biochemical
# EXPERIMENTAL_CONDITIONS: compound at 0.1 μM; read-out: c-KIT 0.1 μM, % of inhibition relative to control
TEST_READOUT: inhibition at 0.1 µM (%)
Numbers only, in %.

Worked set:
* CN(C)Cc1c(/C=C2/C(=O)Nc3ccc(F)cc32)cc2cccccc1-2 [Compound 59] | 24.2
* O=C1Nc2ccc(F)cc2/C1=C/c1c(Br)c2cccccc-2c1Br [Compound 61] | 30.5
* O=C1Nc2ccccc2/C1=C\c1cc2cccccc-2c1 [Compound 32] | 60.3
* CN(C)CCNC(=O)c1cc(/C=C2/C(=O)Nc3ccc(F)cc32)c2cccccc1-2 [Compound 67] | 30.2

// below: inhibition at 0.1 µM requested for another molecule
Q. Which inhibition at 0.1 µM reading was recorded for the molecule Cc1cc(C=C2C(=O)Nc3ccccc32)c2ccccc(OCCCN(C)C)c1-2 [Compound 98] ?
A. 60.4

---

# TARGET_DESC: human c-KIT (Thr544-Val976) (Homo sapiens, UniProt P10721)
# Construct: human c-KIT (Thr544-Val976); GST (N); purchased Cell Signaling Technology; host or cells: baculovirus expression system
# EXPERIMENT_NOTES: c-KIT kinase assay (HTScan kit, DELFIA)
# Assay type: biochemical
# EXPERIMENTAL_CONDITIONS: compound at 1 μM; read-out: c-KIT 1 μM, % of inhibition relative to control
Could you please report measured inhibition at 1 µM for the items listed next?
Answers are plain numbers, in %.

• O=C1Nc2ccc(F)cc2/C1=C/c1cc(F)c2cccccc1-2 = 28.3
• O=C1Nc2ccc(F)cc2/C1=C/c1cc(Br)c2cccccc1-2 = 73.9
• Cc1cc(C=C2C(=O)Nc3ccc(F)cc32)c2ccccc(OCCCN3CCOCC3)c1-2 (mixture of isomers) = 71
• CCc1cc(C=C2C(=O)Nc3ccc(F)cc32)c2cccccc1-2 = 29.6
• O=C1Nc2ccc(Br)cc2/C1=C/c1ccc2cccccc1-2 = 36.6
• O=C1Nc2ccccc2/C1=C\c1c2cccccc-2[nH]c1=O = 25.7

Quick request: inhibition at 1 µM for each listed item, please.
1. Cc1cc(/C=C2/C(=O)Nc3ccc(F)cc32)c2cccccc1-2
2. Nc1cc2cccccc-2c1C=C1C(=O)Nc2ccc(F)cc21
3. CN(C)Cc1cc(/C=C2/C(=O)Nc3ccccc32)c2cccccc1-2

A.
1: 72.6; 2: 34.2; 3: 18

---

# TARGET_DESC: human FLT-3 (Arg571-Ser993) (Homo sapiens, UniProt P36888)
# Construct: human FLT-3 (Arg571-Ser993); GST (N); purchased Cell Signaling Technology; host or cells: baculovirus expression system
# EXPERIMENT_NOTES: FLT-3 kinase assay (HTScan kit, DELFIA)
# Assay type: biochemical
# EXPERIMENTAL_CONDITIONS: compound at 1 μM; read-out: FLT-3 1 μM, % of inhibition relative to control
inhibition at 1 µM below 60% gives no (0); inhibition at 1 µM at or above it gives yes (1).

* O=C1Nc2ccc(Cl)cc2/C1=C\c1ccc2cccccc1-2 [Compound 22] | no (0)
* O=C1Nc2ccc(F)cc2/C1=C/c1cc(F)c2cccccc1-2 [Compound 60] | no (0)
* O=C1Nc2ccc(F)cc2/C1=C\c1ccc2cccc-2cc1 [Compound 53] | no (0)
* Cc1cc(C=C2C(=O)Nc3ncccc32)c2ccccc(OCCCN(C)C)c1-2 [Compound 104] | no (0)
* O=C1Nc2ccc(F)cc2/C1=C/c1cc(Cl)c2cccccc1-2 [Compound 46] | yes (1)
* O=C1Nc2ccc(F)cc2/C1=C/c1c(Br)c2cccccc-2c1Br [Compound 61] | no (0)
* O=C1Nc2ccc(F)cc2/C1=C/c1c2cccccc-2oc1=O [Compound 62] | yes (1)

Q. Assess whether reported inhibition at 1 µM for Cc1cc(/C=C2/C(=O)N(C(c3ccccc3)c3ccccc3)c3ccccc32)c2c(C)ccc(C(C)C)cc1-2 [Compound 14] sits at 60% or higher.
A. no (0)

---

# TARGET_DESC: human VEGFR-2 (Val789-Val1356) (Homo sapiens, UniProt P35968)
# Construct: human VEGFR-2 (Val789-Val1356); GST (N); purchased Cell Signaling Technology; host or cells: baculovirus expression system
# Sequence (P35968 789-1356): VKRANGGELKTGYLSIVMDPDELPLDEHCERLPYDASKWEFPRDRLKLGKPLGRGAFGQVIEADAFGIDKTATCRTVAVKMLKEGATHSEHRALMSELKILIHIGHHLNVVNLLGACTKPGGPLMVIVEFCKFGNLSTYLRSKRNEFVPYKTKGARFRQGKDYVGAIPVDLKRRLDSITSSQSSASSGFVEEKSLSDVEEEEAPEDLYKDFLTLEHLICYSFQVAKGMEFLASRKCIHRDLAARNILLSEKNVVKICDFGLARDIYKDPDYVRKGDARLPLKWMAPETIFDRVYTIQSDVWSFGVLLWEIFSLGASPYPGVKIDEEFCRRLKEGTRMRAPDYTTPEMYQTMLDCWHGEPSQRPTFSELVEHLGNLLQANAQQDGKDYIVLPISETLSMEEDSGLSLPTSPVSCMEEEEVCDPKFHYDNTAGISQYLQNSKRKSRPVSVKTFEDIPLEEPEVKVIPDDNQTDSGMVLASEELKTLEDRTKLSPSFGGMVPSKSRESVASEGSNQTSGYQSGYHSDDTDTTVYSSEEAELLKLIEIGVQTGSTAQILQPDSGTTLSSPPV
# EXPERIMENT_NOTES: KDR kinase assay (HTScan VEGFR-2 kit, DELFIA)
# Type: biochemical
# EXPERIMENTAL_CONDITIONS: compound at 1 μM; read-out: KDR 1 μM, % of inhibition relative to control
Could you please report measured inhibition at 1 µM for the items listed next?
Answers are plain numbers, in %.

Worked set:
* Cc1cc(/C=C2/C(=O)N(C(c3ccccc3)c3ccccc3)c3ccccc32)c2c(C)ccc(C(C)C)cc1-2 | 69.2
* O=C1Nc2ccc(Cl)cc2/C1=C\c1ccc2cccccc1-2 | 40.6
* O=C1Nc2cc(Br)ccc2/C1=C\c1ccc2cccccc1-2 | 22.4
* CN(C)Cc1cc(/C=C2/C(=O)Nc3ccc(F)cc32)c2cccccc1-2 | 46.9
* Cc1cc(/C=C2\C(=O)Nc3ccc(F)cc32)c2ccccc(OCCCN(C)C)c1-2 | 93.6

Quick request: inhibition at 1 µM for each listed item, please.
1. Cc1cc(/C=C2/C(=O)Nc3ccccc32)c2cccccc1-2
2. Cc1cc(/C=C2/C(=O)Nc3ccccc32)c2c(C)ccc(C(C)C)cc1-2
3. Cc1cc(/C=C2/C(=O)N(Cc3ccccc3)c3ccccc32)c2c(C)ccc(C(C)C)cc1-2
4. CC(C)c1cc(C=C2C(=O)Nc3ccc(F)cc32)c2cccccc1-2

A.
1: 0.3; 2: 34.3; 3: 83.9; 4: 36.6

---

# TARGET_DESC: human c-KIT (Thr544-Val976) (Homo sapiens)
# Construct: human c-KIT (Thr544-Val976); GST (N); purchased Cell Signaling Technology; host or cells: baculovirus expression system
# EXPERIMENT_NOTES: c-KIT kinase assay (HTScan kit, DELFIA)
# Assay type: biochemical
# EXPERIMENTAL_CONDITIONS: compound at 1 μM; read-out: c-KIT 1 μM, % of inhibition relative to control
inhibition at 1 µM below 50% gives criterion not met; inhibition at 1 µM at or above it gives criterion met.

Check out these entries, answers already filled in.
* O=C1Nc2ccc(F)cc2/C1=C\c1ccc2cccc-2cc1 | criterion not met
* Cc1cc(C=C2C(=O)Nc3cc(F)ccc32)c2ccccc(OCCCN(C)C)c1-2 | criterion met
* Cc1cc(C=C2C(=O)Nc3cc(C(F)(F)F)ccc32)c2ccccc(OCCCN(C)C)c1-2 | criterion not met

Would you kindly look at the next entry?
Q. Assess whether reported inhibition at 1 µM for Cc1cc(/C=C2/C(=O)N(Cc3ccccc3)c3ccccc32)c2c(C)ccc(C(C)C)cc1-2 sits at 50% or higher.
A. criterion met
